Assay: gradient 5% acetonitrile 3 min, to 50% in 2 min, to 85% in 15 min, held 3 min, 100 µL/min
Conditions: column: Zorbax Extend-C18 2.1 x 50 mm; eluents: water / acetonitrile, 0.1% formic acid
Reported property: RP-LC retention time (s)

Examples with their reported RP-LC retention time follow.
{"Compound": "CC1CCN(C(=O)c2nc(-c3ccnc(N4CCCC4)c3)no2)CC1", "Unit info": "s", "RP-LC retention time": 684}
{"Compound": "Cn1cc(CC(=O)NCc2ccc(F)cc2)c2cccnc21", "Unit info": "s", "RP-LC retention time": 669}
{"Compound": "O=C(O)c1nnn(-c2ccccc2F)c1-c1cccnc1", "Unit info": "s", "RP-LC retention time": 612}
{"Compound": "COc1cc(OC)c(NC(=O)C2=C(C)C(=O)OC23CCN(C(C)=O)CC3)cc1Cl", "Unit info": "s", "RP-LC retention time": 730}
{"Compound": "Cn1c(SCC(=O)N2CCC(C(N)=O)CC2)nnc1-c1sc2ncccc2c1N", "Unit info": "s", "RP-LC retention time": 577}
{"Compound": "O=C1CCN(C(=O)C2CCN(C(=O)CN3CCCC3=O)CC2)CCCCCCN1", "Unit info": "s", "RP-LC retention time": 572}
{"Compound": "COc1ccc(OC)c(NC(=O)COc2nc(C)nc3ccccc23)c1", "Unit info": "s", "RP-LC retention time": 725}
{"Compound": "CC(=O)N1CCCc2cc(S(=O)(=O)CCC(=O)Nc3ccc(C)c(C)c3)ccc21", "Unit info": "s", "RP-LC retention time": 784}

I = COc1cc(OC)cc(-c2noc(-c3nn(-c4cccc(F)c4)ccc3=O)n2)c1
II = CN1CCN(CCCNC(=O)c2ccc(CS(=O)c3cccc(Cl)c3)o2)CC1 (stereo not given)
In: Hi, I'm comparing I with II and wondering which one has the bigger number for RP-LC retention time. Any idea? Returns: label corresponding to the selected item.
Out: I
(I: 881 s, II: 527 s)

---

Experiment: gradient 5% acetonitrile 3 min, to 50% in 2 min, to 85% in 15 min, held 3 min, 100 µL/min
Conditions: column: Zorbax Extend-C18 2.1 x 50 mm; eluents: water / acetonitrile, 0.1% formic acid
Reported property: RP-LC retention time (s)

Examples with their reported RP-LC retention time follow.
{"Compound": "C=CCn1nnc(NCc2ccc(-c3cccc(Cl)c3)o2)n1", "Reported property": "RP-LC retention time", "Observed measurement": 1050}
{"Compound": "O=C(c1ccc(C(F)(F)F)cc1)N1CCc2nc(-c3ccc(Cl)cc3)ncc2C1", "Reported property": "RP-LC retention time", "Observed measurement": 1170}
{"Compound": "O=S(=O)(c1ccc2c(c1)OCCO2)N1CCCn2nc(-c3cccc(Cl)c3)cc2C1", "Reported property": "RP-LC retention time", "Observed measurement": 1040}
{"Compound": "Cc1nn(-c2nc(-c3ccc(Cl)cc3)cs2)c(C)c1CC(=O)N1CCCCCC1", "Reported property": "RP-LC retention time", "Observed measurement": 793}
{"Compound": "O=S(=O)(c1cccc2cccnc12)N1CCc2ccccc2C1", "Reported property": "RP-LC retention time", "Observed measurement": 876}

a = CCc1nc(NCc2ccccn2)ncc1C(=O)O
b = COc1ccc(-c2cc3nn(CC(=O)Nc4ccc(F)cc4)c(=O)n3c(C)n2)cc1
In: // task: argmin of RP-LC retention time over [ a , b ] Returns: label corresponding to the selected item.
Out: a
(a: 557 s, b: 914 s)

A = COc1ccc(OCc2nc(-c3ccc4c(c3)oc(=O)n4C(C)C)no2)cc1
B = CC(C)c1ccc(CNC(=O)c2ccc3ncnc(N4CCOCC4)c3c2)cc1
In: // task: argmin of RP-LC retention time over [ A , B ] Returns: label corresponding to the selected item.
Out: B

A = CCn1c(C(=O)N(C)C2CCCCC2)cc2c(=O)oc3ccccc3c21
B = Cc1nc2cc3c(cc2n1CC(=O)NCc1ccc2c(c1)OCCCO2)OCCO3
In: // task: argmin of RP-LC retention time over [ A , B ] Returns: label corresponding to the selected item.
Out: B
(B: 615 s, A: 1010 s)

---

Assay: gradient 5% acetonitrile 3 min, to 50% in 2 min, to 85% in 15 min, held 3 min, 100 µL/min
Conditions: column: Zorbax Extend-C18 2.1 x 50 mm; eluents: water / acetonitrile, 0.1% formic acid
Reported property: RP-LC retention time (s)

{"Compound": "O=C(Nc1nc2c(s1)CN(Cc1ccccc1)CC2)c1cccc(N2C(=O)CCC2=O)c1", "Unit info": "s", "RP-LC retention time": 548}
{"Compound": "O=C(NCc1ccc(F)cc1F)c1ccc(Cn2c(C(F)(F)F)nc3cccnc32)cc1", "Unit info": "s", "RP-LC retention time": 925}
{"Compound": "CCn1c(N2CCCC(C(=O)NCCOC)C2)cc(=O)n(C)c1=O (stereo not given)", "Unit info": "s", "RP-LC retention time": 646}

A = O=C(Nc1ccc(Cl)cc1F)c1cc(C2CC2)on1
B = CN(C)S(=O)(=O)c1ccc(-c2nnc(C(=O)NCCCN3CCCC3)o2)cc1
In: Hi, I'm comparing A with B and wondering which one has the bigger number for RP-LC retention time. Any idea? Returns: label corresponding to the selected item.
Out: A
(A: 1090 s, B: 593 s)

---

Assay: gradient 5% acetonitrile 3 min, to 50% in 2 min, to 85% in 15 min, held 3 min, 100 µL/min
Details: column: Zorbax Extend-C18 2.1 x 50 mm; eluents: water / acetonitrile, 0.1% formic acid
Reported property: RP-LC retention time (s)

Examples with their reported RP-LC retention time follow.
{"Molecule": "CCCC(=O)N1CCc2c(c(C(=O)N3CCCC(C(=O)Nc4ccccc4C)C3)nn2C)C1 (centres undefined)", "Observed measurement": 759}
{"Molecule": "Cc1ccc(C(=O)N2CC(n3cc(COCC4CC4)nn3)C2)c(=O)[nH]1", "Observed measurement": 595}
{"Molecule": "COc1ccc(-n2c(=O)n(C)c(=O)c3cc(C(=O)Nc4cccc(Cl)c4)cnc32)cc1", "Observed measurement": 1010}
{"Molecule": "COc1cccc(NC(=O)Cn2c(C)nc3c(sc4nc(-c5ccccc5)ccc43)c2=O)c1", "Observed measurement": 1090}
{"Molecule": "CCCCN(CCCNc1nc(C(=O)OCC)nc2ccccc12)c1ccccc1", "Observed measurement": 732}

P = Cc1nc2cc(N3CCC(C(=O)Nc4ccc(N5CCOCC5)cc4)CC3)cnc2nc1C
Q = O=C(c1nnn(Cc2ccc(Cl)cc2)c1-n1cccc1)N1CCSCC1
In: Hi, I'm comparing P with Q and wondering which one has the bigger number for RP-LC retention time. Any idea? Returns: label corresponding to the selected item.
Out: Q

---

Assay: gradient 5% acetonitrile 3 min, to 50% in 2 min, to 85% in 15 min, held 3 min, 100 µL/min
Details: column: Zorbax Extend-C18 2.1 x 50 mm; eluents: water / acetonitrile, 0.1% formic acid
Reported property: RP-LC retention time (s)

{"Molecule": "O=C(Nc1ccc(Cl)cc1)c1csc(-c2ccc(N3CCCC3)nc2)n1", "Observed measurement": 837}
{"Molecule": "O=C(Nc1ccc(C2(C(=O)N3CCN(c4ccccn4)CC3)CCC2)cc1)C1CC1", "Observed measurement": 614}
{"Molecule": "CC(=O)NCc1nc2ccccc2n1CC(=O)Nc1ccccc1C", "Observed measurement": 617}
{"Molecule": "O=C(NCc1ccco1)N1CCOCC1", "Observed measurement": 568}
{"Molecule": "CCC(C)NC(=O)NCCC1CCN(S(=O)(=O)c2ccc(C)cc2)CC1 (stereo not given)", "Observed measurement": 861}
{"Molecule": "O=C(NCCc1c[nH]c2ccccc12)c1cc(-c2cccnc2)nc2ccccc12", "Observed measurement": 741}
{"Molecule": "CCCN1C(=O)c2cc(C(=O)NCc3ccccc3F)nn2CC1(C)C(=O)NC1CCCC1 (stereo not given)", "Observed measurement": 836}
{"Molecule": "CCc1nn2c(CNS(=O)(=O)Cc3ccccc3F)c(-c3ccccc3)nc2s1", "Observed measurement": 948}

1 = CS(=O)(=O)Nc1ccc(C2(C(=O)NC3CCCC3)CCCCC2)cc1
2 = COc1cccc(/C=C2\CCc3ccccc3C2=O)c1
In: Hi, I'm comparing 1 with 2 and wondering which one has the bigger number for RP-LC retention time. Any idea? Returns: label corresponding to the selected item.
Out: 2

a = O=C(Nc1ccc(CN2CCN(c3ccccn3)CC2)cc1)c1ccccc1C(F)(F)F
b = CCN1C(=O)C2(CCN(S(=O)(=O)c3ccc(Cl)cc3C)CC2)c2ccccc21
In: // task: argmin of RP-LC retention time over [ a , b ] Returns: label corresponding to the selected item.
Out: a

I = COCCn1c(CCCC(=O)NCc2cccnc2)nc2cccnc21
II = CCN1c2ccccc2C(=O)NC12CCN(C(=O)Nc1cc(Cl)ccc1OC)CC2
In: // task: argmin of RP-LC retention time over [ I , II ] Returns: label corresponding to the selected item.
Out: I
(I: 534 s, II: 787 s)

a = COc1ccc(C)cc1NC(=O)Cn1nc2c(Oc3ccccc3C)nccn2c1=O
b = Cc1ccc2cc(CCC(=O)NCCc3ccncc3)c(=O)[nH]c2c1
In: // task: argmin of RP-LC retention time over [ a , b ] Returns: label corresponding to the selected item.
Out: b
